Entries annotated with measured log10(IC50)
# system under test: EP2 subtype of the human PGE2 receptor (Homo sapiens)
# Sequence (P43116 whole entry): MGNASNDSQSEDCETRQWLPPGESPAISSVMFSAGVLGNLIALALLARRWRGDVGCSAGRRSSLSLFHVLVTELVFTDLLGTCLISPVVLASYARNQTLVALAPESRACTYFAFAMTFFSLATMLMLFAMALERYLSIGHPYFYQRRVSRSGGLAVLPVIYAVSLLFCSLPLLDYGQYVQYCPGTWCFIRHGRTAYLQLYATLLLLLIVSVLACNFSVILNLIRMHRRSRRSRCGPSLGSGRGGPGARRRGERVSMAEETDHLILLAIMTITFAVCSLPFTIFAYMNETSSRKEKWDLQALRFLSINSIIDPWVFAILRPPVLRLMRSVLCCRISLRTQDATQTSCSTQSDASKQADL
# method: cAMP antagonism test on the human EP2 receptor (HTRF cAMP detection)
# Assay type: cell-based
# recorded conditions: hEP2 receptor, read-out: Antagonism hEP2 IC50
Units before log transform: nM; reported quantity: IC50; transform: log10.

Below, each entry is followed by its recorded log10(IC50) result.
{"compound": "COCCNC(=O)c1ccc2nn(CC3CCN(C(=O)c4ccc(S(F)(F)(F)(F)F)cc4)CC3)cc2c1OC", "endpoint value": 1.36}
{"compound": "Cc1c(C(=O)NCCN2CCOCC2)ccc2nn(CC3CCN(C(=O)c4ccc(C(F)(F)F)cc4F)CC3)cc12", "endpoint value": 3.03}
{"compound": "COc1c(C(=O)NCCN2CCOCC2)ccc2nn(CC3CN(C(=O)c4ccc(Cl)cc4)C3)cc12", "endpoint value": 2.04}
{"compound": "COCCNC(=O)c1ccc2nn(CC3CCN(C(=O)c4ccc(-c5cccnc5)c(C)c4)CC3)cc2c1C", "endpoint value": 1.34}
{"compound": "Cc1c(C(=O)NCC2CCCCO2)ccc2nn(CC3CCN(C(=O)c4ccc(Oc5ccc(C(F)(F)F)cc5)cc4)CC3)cc12 (single isomer, unassigned) [Example 417]", "endpoint value": 0.99}

Task: What measured log10(IC50) is associated with COCCNC(=O)c1cc2cn(CC3CN(C(=O)c4ccc(SC(F)(F)F)cc4)C3)nc2cc1C on EP2 subtype of the human PGE2 receptor (Homo sapiens)?
Output: 1.24

Task: What measured log10(IC50) is associated with Cc1c(C(=O)NCCOC(C)C)ccc2nn(CC3CCN(C(=O)c4ccc(Cl)cc4)CC3)cc12 on EP2 subtype of the human PGE2 receptor (Homo sapiens)?
Output: 0.97

* * *

# system under test: EP4 subtype of the human PGE2 receptor (Homo sapiens, UniProt P35408)
# Sequence (P35408 whole entry): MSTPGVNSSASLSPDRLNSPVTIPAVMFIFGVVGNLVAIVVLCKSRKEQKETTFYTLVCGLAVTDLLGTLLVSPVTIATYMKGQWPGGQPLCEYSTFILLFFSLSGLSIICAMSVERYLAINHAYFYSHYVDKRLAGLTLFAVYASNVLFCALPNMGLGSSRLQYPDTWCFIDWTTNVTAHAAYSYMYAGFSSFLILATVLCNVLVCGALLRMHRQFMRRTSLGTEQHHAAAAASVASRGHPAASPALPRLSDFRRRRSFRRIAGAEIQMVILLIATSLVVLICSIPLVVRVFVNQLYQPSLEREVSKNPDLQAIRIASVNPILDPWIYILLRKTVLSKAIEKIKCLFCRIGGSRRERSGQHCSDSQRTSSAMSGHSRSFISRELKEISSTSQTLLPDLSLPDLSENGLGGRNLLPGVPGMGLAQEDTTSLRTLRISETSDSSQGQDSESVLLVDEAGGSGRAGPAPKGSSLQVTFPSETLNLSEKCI
# method: cAMP antagonism test on the human EP4 receptor (HTRF cAMP detection)
# Format: cell-based
# recorded conditions: selectivity towards hEP4, IC50 measured by cAMP antagonism test
value kind: Selectivity hEP2/hEP4

Below, each entry is followed by its recorded Selectivity hEP2/hEP4 result.
{"compound": "COCCNC(=O)c1ccc2nn(CC3CCN(C(=O)c4ccc(Oc5ccc(F)cc5)cc4)CC3)cc2c1C [Example 3]", "system under test": "EP4 subtype of the human PGE2 receptor (Homo sapiens, UniProt P35408)", "value kind": "Selectivity hEP2/hEP4", "endpoint value": "xxx (xxx > 100)"}
{"compound": "COCCNC(=O)c1ccc2nn(CC3CCN(C(=O)c4nc(-c5ccccc5)no4)CC3)cc2c1C [Example 352]", "system under test": "EP4 subtype of the human PGE2 receptor (Homo sapiens, UniProt P35408)", "value kind": "Selectivity hEP2/hEP4", "endpoint value": "xxx (xxx > 100)"}
{"compound": "O=C(NCCOCC1CC1)c1ccc2nn(CC3CCN(C(=O)c4ccc(Oc5ccc(F)cc5)cc4)CC3)cc2c1OC(F)F [Example 230]", "system under test": "EP4 subtype of the human PGE2 receptor (Homo sapiens, UniProt P35408)", "value kind": "Selectivity hEP2/hEP4", "endpoint value": "xxx (xxx > 100)"}
{"compound": "COc1ccc(-c2ccc(C(=O)N3CCC(Cn4cc5c(C)c(C(=O)NCC(F)(F)F)ccc5n4)CC3)cc2)nc1 [Example 326]", "system under test": "EP4 subtype of the human PGE2 receptor (Homo sapiens, UniProt P35408)", "value kind": "Selectivity hEP2/hEP4", "endpoint value": "xx (xx: 10-100)"}

Task: So what's the measured Selectivity hEP2/hEP4 for this one? Cc1c(C(=O)NCCOCC2CC2)ccc2nn(CC3CCN(C(=O)c4ccc(C5CC5)cc4)CC3)cc12 [Example 89]
Output: xxx (xxx > 100)

Task: So what's the measured Selectivity hEP2/hEP4 for this one? COCCNC(=O)c1ccc2nn(CC3CCN(C(=O)c4ccc(-n5cncn5)cc4)CC3)cc2c1C [Example 39]
Output: xxx (xxx > 100)

Task: So what's the measured Selectivity hEP2/hEP4 for this one? Cc1c(C(=O)NCC(F)(F)F)ccc2nn(CC3CCN(C(=O)c4nc5ccccc5n4C)CC3)cc12 [Example 297]
Output: xx (xx: 10-100)

Task: So what's the measured Selectivity hEP2/hEP4 for this one? Cc1c(C(=O)NCC(F)(F)F)ccc2nn(CC3CCN(C(=O)c4ccc(-c5cnc(C(F)(F)F)nc5)cc4)CC3)cc12 [Example 328]
Output: xx (xx: 10-100)

The reported numbers originate from patent US9062041B2.
